Test system: HGGX39 (paediatric high-grade glioma line)
PROTOCOL: growth inhibition (% activity, log2 RLU normalised to DMSO / staurosporine); higher = more growth inhibition
CONDITION DESCRIPTION: 33 µM
PROPERTY NAME: growth inhibition (%)
Reply numerically in %, unit not repeated.

Input line: Any idea what growth inhibition came out for CC(C)CC(N)=O on HGGX39?
Output line: 0.0712

Input line: Any idea what growth inhibition came out for CCOc1nc2cccc(C(=O)OC(C)OC(=O)OC3CCCCC3)c2n1Cc1ccc(-c2ccccc2-c2nn[nH]n2)cc1 (stereo not drawn) on HGGX39?
Output line: -0.661

Input line: Any idea what growth inhibition came out for CCN[C@@H]1C[C@H](N)[C@@H](O[C@H]2OC(CN)=CC[C@H]2N)[C@H](O)[C@H]1O[C@H]1OC[C@](C)(O)[C@H](NC)[C@H]1O on HGGX39?
Output line: 2.39

Input line: Any idea what growth inhibition came out for Cc1noc(NS(=O)(=O)c2ccc(N)cc2)c1C on HGGX39?
Output line: 2.16

Input line: Any idea what growth inhibition came out for CCc1nc(N)nc(N)c1-c1ccc(Cl)cc1 on HGGX39?
Output line: 7.42

Input line: Any idea what growth inhibition came out for Cc1nnc(NS(=O)(=O)c2ccc(N)cc2)s1 on HGGX39?
Output line: 0.783

Input line: Any idea what growth inhibition came out for CCCCCCCCCC(=O)N[C@@H](Cc1c[nH]c2ccccc12)C(=O)N[C@@H](CC(N)=O)C(=O)N[C@@H](CC(=O)O)C(=O)N[C@@H]1C(=O)NCC(=O)N[C@@H](CCCN)C(=O)N[C@@H](CC(=O)O)C(=O)N[C@H](C)C(=O)N[C@@H](CC(=O)O)C(=O)NCC(=O)N[C@H](CO)C(=O)N[C@@H]([C@H](C)CC(=O)O)C(=O)N[C@@H](CC(=O)c2ccccc2N)C(=O)O[C@@H]1C on HGGX39?
Output line: -1.25

Input line: Any idea what growth inhibition came out for CCN(CC)C(=O)/C(C#N)=C/c1cc(O)c(O)c([N+](=O)[O-])c1 on HGGX39?
Output line: 0.054

Input line: Any idea what growth inhibition came out for CCCCCCCCCCCCCCCC[N+](C)(C)CCN(Cc1ccc(OC)cc1)c1ncccn1 on HGGX39?
Output line: 59.2

Input line: Any idea what growth inhibition came out for OCC(CO)N[C@H]1C[C@](O)(CO)[C@@H](O)[C@H](O)[C@H]1O on HGGX39?
Output line: 0.139

Input line: Any idea what growth inhibition came out for CCOC(=O)[C@H](CCc1ccccc1)N[C@H]1CCCN2CCC[C@@H](C(=O)O)N2C1=O on HGGX39?
Output line: 2.78

Input line: Any idea what growth inhibition came out for CNCCC(Oc1ccc(C(F)(F)F)cc1)c1ccccc1 (stereo not drawn) on HGGX39?
Output line: 2.21

Input line: Any idea what growth inhibition came out for Clc1ccc(C(Cn2ccnc2)OCc2csc3c(Cl)cccc23)c(Cl)c1 (stereo not drawn) on HGGX39?
Output line: 8.8

Input line: Any idea what growth inhibition came out for CO[C@@H]1[C@@H](OC(N)=O)[C@@H](O)[C@H](Oc2ccc3c(O)c(NC(=O)c4ccc(O)c(CC=C(C)C)c4)c(=O)oc3c2C)OC1(C)C on HGGX39?
Output line: 3.59

Input line: Any idea what growth inhibition came out for OC(CNCC(O)C1CCc2cc(F)ccc2O1)C1CCc2cc(F)ccc2O1 (stereo not drawn) on HGGX39?
Output line: 4.24

Input line: Any idea what growth inhibition came out for COc1c2occc2cc2ccc(=O)oc12 on HGGX39?
Output line: -2.13

Input line: Any idea what growth inhibition came out for Cc1cc(C)nc(NS(=O)(=O)c2ccc(N)cc2)n1 on HGGX39?
Output line: -1.68

Input line: Any idea what growth inhibition came out for [O-][n+]1cccc(CO)c1 on HGGX39?
Output line: 0.747

Input line: Any idea what growth inhibition came out for O=C(O)C1=CO[C@@H](O[C@@H]2O[C@H](CO)[C@@H](O)[C@H](O)[C@H]2O)[C@@H]2C(CO)=CC[C@H]12 on HGGX39?
Output line: -2.13

Input line: Any idea what growth inhibition came out for CC1=C(C(=O)OC(C)C)C(c2cccc([N+](=O)[O-])c2)C(C(=O)OC2CN(C(c3ccccc3)c3ccccc3)C2)=C(N)N1 (stereo not drawn) on HGGX39?
Output line: 13.3

Input line: Any idea what growth inhibition came out for CCOc1ccccc1OC(c1ccccc1)C1CNCCO1 (stereo not drawn) on HGGX39?
Output line: 0.0675

Input line: Any idea what growth inhibition came out for O=C1NCC2(CCN(CCc3ccccc3)CC2)O1 on HGGX39?
Output line: 1.24

Input line: Any idea what growth inhibition came out for Cc1cccc(CN2CCN(C(c3ccccc3)c3ccc(Cl)cc3)CC2)c1 (stereo not drawn) on HGGX39?
Output line: 6.5

Input line: Any idea what growth inhibition came out for C=C1/C(=C\C=C2/CCC[C@]3(C)[C@@H]([C@H](C)CCCC(C)C)CC[C@@H]23)C[C@@H](O)C[C@@H]1O on HGGX39?
Output line: 3.21

Input line: Any idea what growth inhibition came out for Nc1nnc(-c2cccc(Cl)c2Cl)c(N)n1 on HGGX39?
Output line: 0.648

Input line: Any idea what growth inhibition came out for O=NO on HGGX39?
Output line: 0.656

Input line: Any idea what growth inhibition came out for NC(Cc1cc(I)c(Oc2cc(I)c(O)c(I)c2)c(I)c1)C(=O)O (stereo not drawn) on HGGX39?
Output line: 2.01

Input line: Any idea what growth inhibition came out for CCCCCCCCCCCCCCCC(=O)O[C@@H]1[C@@H](O)[C@@H](O)[C@@H]([C@H](NC(=O)[C@@H]2C[C@@H](CCC)CN2C)[C@H](C)Cl)O[C@@H]1SC on HGGX39?
Output line: 2.42

Input line: Any idea what growth inhibition came out for CN(C)CCN(Cc1ccccc1)c1ccccn1 on HGGX39?
Output line: 5.32

Input line: Any idea what growth inhibition came out for COC(=O)C1=C(C#N)NC(C)=C(C(=O)OC(C)C)C1c1cccc([N+](=O)[O-])c1 (stereo not drawn) on HGGX39?
Output line: -1.34

Input line: Any idea what growth inhibition came out for Cc1cnc(C(=O)NCCc2ccc(S(=O)(=O)NC(=O)NC3CCCCC3)cc2)cn1 on HGGX39?
Output line: 1.35

Input line: Any idea what growth inhibition came out for CN(C)CCC(c1ccccc1)c1ccccn1 (stereo not drawn) on HGGX39?
Output line: 3.82

Input line: Any idea what growth inhibition came out for CCCCC(=O)O[C@]1(C(=O)CO)[C@@H](C)C[C@H]2[C@@H]3CCC4=CC(=O)C=C[C@]4(C)[C@@]3(F)[C@@H](O)C[C@@]21C on HGGX39?
Output line: 3.19

Input line: Any idea what growth inhibition came out for CCN[C@H]1C[C@H](C)S(=O)(=O)c2sc(S(N)(=O)=O)cc21 on HGGX39?
Output line: 2.3

Input line: Any idea what growth inhibition came out for CN1CCN(c2cc3c(cc2F)c(=O)c(C(=O)O)cn3-c2ccc(F)cc2)CC1 on HGGX39?
Output line: 1.58

Input line: Any idea what growth inhibition came out for COC(=O)[C@H](Cc1ccccc1)NC(=O)[C@@H](N)CC(=O)O on HGGX39?
Output line: -1.24

Input line: Any idea what growth inhibition came out for CCCCCCCCCCCCCCCC[N+](C)(C)C on HGGX39?
Output line: 48.6

Input line: Any idea what growth inhibition came out for Nc1nc(Cl)nc2c1ncn2[C@H]1C[C@H](O)[C@@H](CO)O1 on HGGX39?
Output line: 16.4

Recorded values, source the supplement of paper PMC8253809.
